- experiment: Cell Viability - N2a (AID 540);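 note: cells exposed to compound for 40 h at 37 °C; plate controls were DMSO alone for no effect and tamoxifen control for full effect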
- conditionParameters: N2a mouse neuroblastoma cell viability; at 92.2 µM (top of the series)
Results filed as inconclusive are left out.
I'd be grateful if you could share measured activity change, negative = cytotoxicity for these entries.
Give bare numbers, in %.

Completed entries (count: 8):
>  <molecule>
Cc1cccc([N+](=O)[O-])c1C

>  <activity change, negative = cytotoxicity / %>
-2.02

$$$$
>  <molecule>
CC12CCC(CC1=O)C2(C)C (centres undefined)

>  <activity change, negative = cytotoxicity / %>
-9.82

$$$$
>  <molecule>
CCCCCCCCCCCCCC(=O)O

>  <activity change, negative = cytotoxicity / %>
-4.4

$$$$
>  <molecule>
COCC(=O)O

>  <activity change, negative = cytotoxicity / %>
3.33

$$$$
>  <molecule>
Nc1ccc(S(=O)(=O)O)cc1

>  <activity change, negative = cytotoxicity / %>
-1.94

$$$$
>  <molecule>
O=C1CCc2ccccc2O1

>  <activity change, negative = cytotoxicity / %>
7.64

$$$$
>  <molecule>
C=C(C)C1CC=C(C)C(O)C1 (centres undefined)

>  <activity change, negative = cytotoxicity / %>
-0.158

$$$$
>  <molecule>
Cc1ccc([N+](=O)[O-])cc1N

>  <activity change, negative = cytotoxicity / %>
-2.12

$$$$

Next up:
Which activity change, negative = cytotoxicity is reported for this molecule? C1OCOCO1
-19.8
